Here the recorded self-cleavage kobs at 160 uM GlcN6P is given for each entry.
B1: glmS ribozyme (parent)
chain: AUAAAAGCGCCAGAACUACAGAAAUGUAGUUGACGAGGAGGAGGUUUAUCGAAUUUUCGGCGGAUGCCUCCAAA

Variants of: B1
Assay: self-cleavage kobs at 160 uM GlcN6P; higher = faster cleavage; RNA array
Details: with glucosamine-6-phosphate
Fewer inactive variants are shown than the library holds.
Numbers only here, please. The scale is s⁻¹.

mutation.annotation: G66U C67A
reported.endpoint: self-cleavage kobs at 160 uM GlcN6P
readout.unit: s⁻¹
value: 0.000188

Now take the following variant into account.
Which self-cleavage kobs at 160 uM GlcN6P reading was recorded for the variant G29C U69C ?
8.98e-05
